System: SF-268
Test: Cytotoxicity against human SF268 cells assessed as cell growth at 10 uM after 48 hrs by SRB assay relative to control
Assay type: functional
Conditions: SF-268, 48 h, read-out: Activity
Attribute: growth at 10 µM

Illustrative cases are given below, each with its answer.
Provide growth at 10 µM, tested on SF-268, for N#CCCCCCn1cc(C2=C(c3cn(CCCCCC#N)c4ccccc34)C(=O)NC2=O)c2ccccc21 .
107%

Provide growth at 10 µM, tested on SF-268, for N#CCCCCCn1cc(C2=C(c3cn(CCCCCC#N)c4ccccc34)C(=O)N(O)C2=O)c2ccccc21 .
50 to 80.6%

Provide growth at 10 µM, tested on SF-268, for Cn1cc(C2=C(c3cn(C)c4ncccc34)C(=O)NC2=O)c2ccccc21 .
27 to 50.2%

Provide growth at 10 µM, tested on SF-268, for Cn1cc(C2=C(c3cn(C)c4ccccc34)C(=O)N(O)C2=O)c2ccccc21 .
112%

Others:
Provide growth at 10 µM, tested on SF-268, for CC(C)n1cc(C2=C(c3c[nH]c4ccccc34)C(=O)N(O)C2=O)c2ccccc21 .
104%

Provide growth at 10 µM, tested on SF-268, for O=C1C2=C(C(=O)N1O)c1cn(c3ccccc13)CCCCCCn1cc2c2ccccc21 .
105%

Provide growth at 10 µM, tested on SF-268, for O=C(O)CCCCCn1cc(C2=C(c3c[nH]c4ccccc34)C(=O)N(O)C2=O)c2ccccc21 .
98.3%

Provide growth at 10 µM, tested on SF-268, for CC(C)n1cc(C2=C(c3cn(C)c4ccccc34)C(=O)N(O)C2=O)c2ccccc21 .
97.3%

Provide growth at 10 µM, tested on SF-268, for Cn1cc(C2=C(c3c[nH]c4ccccc34)C(=O)N(O)C2=O)c2ccccc21 .
90.4%

Provide growth at 10 µM, tested on SF-268, for Cn1cc(C2=C(c3cn(CCCCCC#N)c4ccccc34)C(=O)N(O)C2=O)c2ccccc21 .
94.9%

Provide growth at 10 µM, tested on SF-268, for Cn1cc(C2=C(c3cn(CCCCCC(=O)O)c4ccccc34)C(=O)N(O)C2=O)c2ccccc21 .
99.5%

---

Attribute: Activity
Molecular target: Cyclin-dependent kinase 5/CDK5 activator 1 (Homo sapiens) (UniProt Q00535+Q15078)
Sequence (Q00535 whole entry): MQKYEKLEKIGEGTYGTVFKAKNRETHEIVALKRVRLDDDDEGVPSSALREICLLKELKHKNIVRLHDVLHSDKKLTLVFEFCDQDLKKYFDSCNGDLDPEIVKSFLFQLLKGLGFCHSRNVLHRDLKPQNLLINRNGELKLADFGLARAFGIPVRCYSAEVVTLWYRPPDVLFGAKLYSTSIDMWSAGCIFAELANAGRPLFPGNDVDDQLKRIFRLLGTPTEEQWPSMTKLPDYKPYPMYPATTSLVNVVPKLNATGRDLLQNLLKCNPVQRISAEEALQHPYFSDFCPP
Sequence (Q15078 99-307 partner limits assumed): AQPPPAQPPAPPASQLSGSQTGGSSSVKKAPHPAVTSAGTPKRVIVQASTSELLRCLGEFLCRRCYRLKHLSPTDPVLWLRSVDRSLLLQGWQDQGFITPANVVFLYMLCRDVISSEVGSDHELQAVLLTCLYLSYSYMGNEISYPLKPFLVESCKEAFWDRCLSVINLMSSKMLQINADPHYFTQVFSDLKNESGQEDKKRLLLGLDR
Assay: Inhibition of recombinant full length human CDK5/p25 expressed in bacteria assessed as residual activity at 10 uM using histone H1 as substrate in presence of [gamma-33P]ATP
Quick note: number first, unit second.

Illustrative cases are given below, each with its answer.
Please supply the value of reported Activity for the item Cn1cc(C2=C(c3cn(CCCCCC#N)c4ccccc34)C(=O)N(O)C2=O)c2ccccc21
49%

Please supply the value of reported Activity for the item CC(C)n1cc(C2=C(c3c[nH]c4ccccc34)C(=O)N(O)C2=O)c2ccccc21
71%

Please supply the value of reported Activity for the item Cn1cc(C2=C(c3cn(C)c4ccccc34)C(=O)N(O)C2=O)c2ccccc21
82%

Please supply the value of reported Activity for the item N#CCCCCCn1cc(C2=C(c3cn(CCCCCC#N)c4ccccc34)C(=O)N(O)C2=O)c2ccccc21
75%

Others:
Please supply the value of reported Activity for the item O=C(O)CCCCCn1cc(C2=C(c3c[nH]c4ccccc34)C(=O)N(O)C2=O)c2ccccc21
60%

Please supply the value of reported Activity for the item Cn1cc(C2=C(c3c[nH]c4ccccc34)C(=O)N(O)C2=O)c2ccccc21
66%

Please supply the value of reported Activity for the item CC(C)n1cc(C2=C(c3cn(C)c4ccccc34)C(=O)N(O)C2=O)c2ccccc21
34%

Please supply the value of reported Activity for the item CCn1cc(C2=C(c3cn(C)c4ccccc34)C(=O)N(O)C2=O)c2ccccc21
76%

Please supply the value of reported Activity for the item O=C1C(c2c[nH]c3ccccc23)=C(c2c[nH]c3ncccc23)C(=O)N1O
87%

Sourced from ChEMBL document CHEMBL4229455
